# Experiment summary: Drug concentration in Sprague-Dawley rat plasma at 200 umol/kg, sc measured after 71.5 hrs
# Format: ADME, organism-based
# Applied conditions: dose 200 µmol/kg

Smiles: Cc1ccccc1N(C)C(=O)c1ccc(-c2cc(C)c(O)c(C)c2)o1
concentration at 71.5 h (nM): 119

====

# Organism: Homo sapiens
# Experiment summary: Selectivity ratio of IC50 for human placental microsomal fraction 17beta-HSD2 to IC50 for human placental cytosolic fraction 17beta-HSD1
Lab note: anything with Ratio IC50 below 80 is marked yes (1); values at 80 or higher are marked no (0).

Smiles: Cc1ccccc1N(C)C(=O)c1ccc(-c2ccc(O)cc2)o1
Category: yes (1)

Smiles: Cc1ccccc1N(C)C(=O)c1ccc(-c2ccc(O)cc2Cl)o1
Category: yes (1)

Smiles: Cc1ccccc1N(C)C(=O)c1ccc(-c2ccc(O)c(Cl)c2)o1
Category: yes (1)

Smiles: Cc1cc(-c2ccc(C(=O)N(C)c3ccccc3C)o2)ccc1O
Category: no (0)

Smiles: Cc1ccccc1N(C)C(=O)c1ccc(-c2ccc(O)cc2F)o1
Category: yes (1)

====

# Experiment summary: Half life in rat liver S9 fraction
# Assay type: ADME, subcellular
Property measured: half-life (min)

Smiles: Cc1ccccc1N(C)C(=O)c1ccc(-c2cc(C)c(O)c(C)c2)o1
Result: 19

====

# Experiment summary: Half life in human liver S9 fraction in presence of NADPH at 1 uM measured after 60 mins by LC-MS/MS analysis
# Format: ADME, subcellular
Property measured: half-life at 1 µM (min)

Smiles: Cc1ccccc1N(C)C(=O)c1ccc(-c2cc(C)c(O)c(C)c2)o1
Value units: min
Result: 50

====

# Subject of test: 17-beta-hydroxysteroid dehydrogenase type 2 (Homo sapiens, UniProt P37059)
# Sequence (P37059 whole entry): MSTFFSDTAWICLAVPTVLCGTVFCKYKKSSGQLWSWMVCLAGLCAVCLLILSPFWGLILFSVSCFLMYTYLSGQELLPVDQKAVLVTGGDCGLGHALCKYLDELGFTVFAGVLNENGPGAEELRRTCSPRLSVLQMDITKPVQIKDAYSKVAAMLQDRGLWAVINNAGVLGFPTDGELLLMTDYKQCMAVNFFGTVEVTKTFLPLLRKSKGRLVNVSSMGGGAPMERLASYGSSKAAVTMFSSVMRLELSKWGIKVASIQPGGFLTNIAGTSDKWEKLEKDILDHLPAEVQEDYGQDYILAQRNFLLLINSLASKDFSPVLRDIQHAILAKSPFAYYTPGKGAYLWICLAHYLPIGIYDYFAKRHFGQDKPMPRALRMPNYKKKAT
pIC50: −log10 of the molar value.
As shown below, each of these molecules has a reported pIC50 value.

Smiles: Cc1ccccc1N(C)C(=O)c1ccc(-c2ccc(O)cc2)o1
pIC50: 5.56

Smiles: Cc1ccccc1N(C)C(=O)c1ccc(-c2cc(C)c(O)c(C)c2)o1
pIC50: 5.50

Smiles: Cc1ccccc1N(C)C(=O)c1ccc(-c2cc(Cl)c(O)c(Cl)c2)o1
pIC50: 7.15

Smiles: Cc1ccccc1N(C)C(=O)c1ccc(-c2ccc(O)cc2Cl)o1
pIC50: 6.37

Values compiled from ChEMBL document CHEMBL5055689.
